target: Fibroblast growth factor 22 (Homo sapiens) (UniProt Q9HCT0); test: binders of human FGF22 protein, primary screen, FGF22 synaptogenesis inhibitor project, biophysical, thermal shift, single point (AID 651658); settings: recombinant FGF22 thermal shift, SYPRO orange fluorescence; at 9.99 µM; stronger effect = higher value; percent of sucrose octasulfate shift, DMSO zero
Sequence (Q9HCT0 whole entry, looked up): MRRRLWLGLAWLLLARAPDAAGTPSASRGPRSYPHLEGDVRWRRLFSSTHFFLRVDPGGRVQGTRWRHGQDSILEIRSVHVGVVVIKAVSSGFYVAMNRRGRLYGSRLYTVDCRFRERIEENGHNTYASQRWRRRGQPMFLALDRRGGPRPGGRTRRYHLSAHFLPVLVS
In all, about 340,000 compounds went through this assay and about 5,100 (1.5%) were called active. Only a selection was taken, and actives are over-represented in it overall.
Below, each of the molecules is paired with its reported activity (Tm shift, normalised) value.
Reply numerically in %, unit not repeated.

Solved entries:
SMILES RECORD: O=C(N[C@H]1CC[C@H](CCNS(=O)(=O)c2ccc(F)cc2)O[C@H]1CO)c1cccc(F)c1
activity (Tm shift, normalised) [%]: -0.051
//
SMILES RECORD: O=C(Nc1cc(F)ccc1F)N[C@@H]1C=C[C@@H](CC(=O)N2CCc3ccccc3C2)O[C@@H]1CO
activity (Tm shift, normalised) [%]: -0.137
//
SMILES RECORD: COc1ccc2c3c(n(C)c2c1)[C@@H](CO)N(C(=O)Nc1ccccc1F)CC31CCN(C(=O)c2ccccc2F)CC1
activity (Tm shift, normalised) [%]: -0.032

Consider the additional molecule presented here.
Field activity (Tm shift, normalised) (entry "CS(=O)(=O)N1[C@H](CO)[C@H](c2ccccc2)C12CN(C(=O)C1CC1)C2" ) reads -0.066

###

biological target: Fibroblast growth factor 22 (Homo sapiens) (UniProt Q9HCT0); test: binders of human FGF22 protein, primary screen, FGF22 synaptogenesis inhibitor project, biophysical, thermal shift, single point (AID 651658); details: recombinant FGF22 thermal shift, SYPRO orange fluorescence; at 9.99 µM; percent of sucrose octasulfate shift, DMSO zero
The whole screen tested about 340,000 compounds, of which about 5,100 (1.5%) were called active.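 How the source made its calls: active means mean Tm shift, scaled 0 neutral to 100 positive control, at about 1.3% or above, every replicate too (limit read from the data); inconclusive means no clear call, values can overlap the other calls; inactive means the rest.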 Shown is part of a subset that was picked to be rich in actives.
Classes to choose from: active, inactive

COMPOUND: CC1CCCN(CC(O)COCc2ccccc2)C1 (centres undefined)
LABEL: active
//
COMPOUND: COc1ccccc1N(CC(=O)Nc1ccc(C(F)(F)F)cc1)S(C)(=O)=O
LABEL: active
//
COMPOUND: COc1ccccc1-c1ccc2c(c1)O[C@H](CN(C)C(=O)c1cccnc1)[C@H](C)CN([C@@H](C)CO)S2(=O)=O
LABEL: inactive
//
COMPOUND: COc1ccccc1NC(=O)CN(c1ccccc1OC)S(=O)(=O)c1ccccc1
LABEL: inactive
//
COMPOUND: CC(=O)C12CC(C)=C(C)CC1CC1C3CCC4=CC(=O)CCC4(C)C3CCC12C (centres undefined)
LABEL: inactive

INPUT: Recorded test call requested for "CC(=O)O[C@]1(C(C)=O)CC[C@H]2[C@@H]3C=C(C)C4=CC(=O)CC[C@]4(C)[C@H]3CC[C@@]21C"
OUTPUT: inactive

INPUT: Recorded test call requested for "C[C@@H]1CN([C@@H](C)CO)C(=O)c2cc(NC(=O)Nc3ccc4c(c3)OCO4)ccc2O[C@@H](C)CCCCO[C@@H]1CN(C)S(=O)(=O)c1cccs1"
OUTPUT: inactive

INPUT: Recorded test call requested for COc1ccc(COCC(O)CN2CCC(C(N)=O)CC2)cc1 (centres undefined)
OUTPUT: inactive

INPUT: Recorded test call requested for "N#C[C@@H]1[C@@H](c2ccc(-c3cccnc3)cc2)[C@H](CO)N1C(=O)Nc1ccc(F)cc1"
OUTPUT: inactive

###

biological target: Fibroblast growth factor 22 (Homo sapiens); assay: binders of human FGF22 protein, primary screen, FGF22 synaptogenesis inhibitor project, biophysical, thermal shift, single point (AID 651658); conditions: recombinant FGF22 thermal shift, SYPRO orange fluorescence; at 9.99 µM; percent of sucrose octasulfate shift, DMSO zero
The campaign covered roughly 340,000 compounds. About 5,100 (1.5%) were called active.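 How the source made its calls: active means mean Tm shift, scaled 0 neutral to 100 positive control, at about 1.3% or above, every replicate too (limit read from the data); inconclusive means no clear call, values can overlap the other calls; inactive means the rest.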 Many of the other results were omitted from the sample, so actives are more common in it than they were.
Classes to choose from: yes (active), no (inactive)

COMPOUND: O=C(NNC(=O)c1ccc(Cl)cc1Cl)c1cccs1
TARGET OR SYSTEM: Fibroblast growth factor 22 (Homo sapiens)
LABEL: yes

INPUT: Recorded test call requested for "COc1cccc(-c2ccc3c(c2)O[C@H](CN(C)Cc2ccncc2)[C@H](C)CN([C@H](C)CO)S3(=O)=O)c1"
OUTPUT: no

INPUT: Recorded test call requested for "Cc1ccc(S(=O)(=O)N[C@@H]2CC[C@@H](CCn3cc(C4CC4)nn3)O[C@@H]2CO)cc1"
OUTPUT: no

INPUT: Recorded test call requested for "COCC(=O)Nc1ccc2c(c1)OC[C@H](C)N(C)C[C@@H](C)[C@@H](OC)CN(C)C2=O"
OUTPUT: yes

###

biological target: Fibroblast growth factor 22 (Homo sapiens); experiment: binders of human FGF22 protein, primary screen, FGF22 synaptogenesis inhibitor project, biophysical, thermal shift, single point (AID 651658); conditions: recombinant FGF22 thermal shift, SYPRO orange fluorescence; at 9.99 µM; stronger effect = higher value; percent of sucrose octasulfate shift, DMSO zero
Hit rate of the full screen: of about 340,000 compounds, about 5,100 (1.5%) were called active. What follows is part of a selection rich in actives, with near analogues and random picks from the rest.
PARAMETER MEASURED: activity (Tm shift, normalised) (%)
Reply numerically in %, unit not repeated.

Solved entries:
COMPOUND: Cc1cccc(-n2cnc(C(=O)NNC(=S)Nc3ccccc3)c2)n1
TARGET OR SYSTEM: Fibroblast growth factor 22 (Homo sapiens)
READOUT UNIT: %
activity (Tm shift, normalised): 0.832

COMPOUND: CCCc1cc(=O)[nH]c(SCC(=O)Nc2ccc(C(=O)Nc3ccccc3OC)cc2)n1
TARGET OR SYSTEM: Fibroblast growth factor 22 (Homo sapiens)
READOUT UNIT: %
activity (Tm shift, normalised): -0.412

COMPOUND: C[C@H](CO)N1C[C@H](C)[C@@H](CN(C)C(=O)C2CCCCC2)Oc2cc(C3=CCCC3)ccc2S1(=O)=O
TARGET OR SYSTEM: Fibroblast growth factor 22 (Homo sapiens)
READOUT UNIT: %
activity (Tm shift, normalised): 0.195

COMPOUND: O=C(Nc1ccccc1)Nc1nnc(COc2ccccc2F)s1
TARGET OR SYSTEM: Fibroblast growth factor 22 (Homo sapiens)
READOUT UNIT: %
activity (Tm shift, normalised): 0.184

COMPOUND: Cc1ccc(NC(=O)CSc2nc(CSc3ccc(C)cc3)cc(=O)[nH]2)cc1
TARGET OR SYSTEM: Fibroblast growth factor 22 (Homo sapiens)
READOUT UNIT: %
activity (Tm shift, normalised): 44

Field activity (Tm shift, normalised) (entry "Cc1cc([N+](=O)[O-])ccc1NS(=O)(=O)c1ccccc1" ) reads 1.12

Field activity (Tm shift, normalised) (entry "COc1cc(C)ccc1OCC(=O)OCC(=O)c1ccc[nH]1" ) reads 43.3

Field activity (Tm shift, normalised) (entry "O=C(Nc1ccncc1)Nc1ccc(F)cc1" ) reads 0.093

Field activity (Tm shift, normalised) (entry "CC(=O)N(C)C[C@@H]1Oc2ncc(C#Cc3ccccn3)cc2C(=O)N([C@@H](C)CO)C[C@@H]1C" ) reads 0.165

Field activity (Tm shift, normalised) (entry "COc1ccc(-c2ccccc2[C@H]2[C@@H](CO)N(C(=O)C3CCC3)[C@H]2C#N)cc1" ) reads -0.131

Field activity (Tm shift, normalised) (entry "Cc1ccn2c(=O)c(NC(=O)c3cccc4ccccc34)c(C)nc2c1" ) reads -0.089

Field activity (Tm shift, normalised) (entry Cc1ccc(CN2CCN(Cc3ccccc3-c3ccco3)CC2CCO)o1 (configuration not stated) ) reads 43.4

Field activity (Tm shift, normalised) (entry "C[C@@H]1CN([C@H](C)CO)S(=O)(=O)c2ccc(-c3ccccc3)cc2O[C@@H]1CN(C)C(=O)CC1CC1" ) reads -0.061

###

biological target: Fibroblast growth factor 22 (Homo sapiens); assay: binders of human FGF22 protein, primary screen, FGF22 synaptogenesis inhibitor project, biophysical, thermal shift, single point (AID 651658); settings: recombinant FGF22 thermal shift, SYPRO orange fluorescence; at 9.99 µM; stronger effect = higher value; percent of sucrose octasulfate shift, DMSO zero
About 5,100 (1.5%) of roughly 340,000 compounds were called active. This is one part of a sample in which actives are shown more often than they occur.
Below, each of the compounds is paired with its reported activity (Tm shift, normalised) value.
Reply numerically in %, unit not repeated.

COMPOUND: Oc1ccc(-c2nnc(Nc3ccccc3)c3ccccc23)cc1
TARGET OR SYSTEM: Fibroblast growth factor 22 (Homo sapiens)
activity (Tm shift, normalised) (%): 0.298

Field activity (Tm shift, normalised) (entry "CO[C@H]1CN(C)C(=O)c2cc(NC(=O)c3nc4ccccc4s3)ccc2OC[C@H](C)N(Cc2cccnc2)C[C@@H]1C" ) reads -0.365

Field activity (Tm shift, normalised) (entry "C[C@@H]1CN([C@H](C)CO)S(=O)(=O)c2ccc(C3=CCCC3)cc2O[C@@H]1CN(C)C(=O)C1CCC1" ) reads 0.141

Field activity (Tm shift, normalised) (entry "C[C@@H]1CN([C@H](C)CO)C(=O)c2cc(NC(=O)c3ccncc3)ccc2O[C@@H]1CN(C)C(=O)Nc1ccc(F)cc1" ) reads -0.074

Field activity (Tm shift, normalised) (entry O=C(COC(=O)c1ncc(Cl)c(Cl)c1Cl)NC1CCS(=O)(=O)C1 (stereo not given) ) reads 0.023
